Reported growth by item:
System: HOP-62 NSCLC
Assay: NCI-60 one-dose screen, 48 h (100 = growth as untreated, 0 = no growth, -100 = all killed)
Conditions: 10 µM unless noted
The panel holds about 83,000 compounds, 20% with a hit somewhere; the sample as a whole holds those more often.
experimental endpoint: growth (%)

[[record]]
smiles_str = "CC(C)(C)OC(=O)Nc1ccc(-c2cccc(Oc3ccc4nnc(Cl)n4n3)c2)cc1"
val = 104

[[record]]
smiles_str = "Fc1ccc(-c2cn3c(-c4c[nH]c5ccc(Br)cc45)csc3n2)cc1"
val = 34.8

[[record]]
smiles_str = "Cc1c(C(=O)/C=C/c2ccc(Cl)cc2)nnn1-c1ccc2oc(=O)ccc2c1"
val = 107

[[record]]
smiles_str = "O=C(CCCCCCNC(=O)C(O)(O)C(F)(F)F)Nc1ccc(Cl)cc1"
val = 4.42

[[record]]
smiles_str = "Cc1ccc(C(=O)CSc2nc3ccccc3c(=O)n2C)cc1"
val = 94

[[record]]
smiles_str = "COc1ccc(/C=N/NC(=O)CSc2nc(-c3cnccn3)cc(-c3cccs3)c2C#N)cc1"
val = 53.4


###

Tested on: SK-MEL-28 melanoma
Test: NCI-60 one-dose screen, 48 h (100 = growth as untreated, 0 = no growth, -100 = all killed)
Details: 10 µM unless noted
Compounds without any hit were thinned out: in the full panel of roughly 83,000, 20% have a hit.
experimental endpoint: growth (%)

[[record]]
smiles_str = "COc1cc(-c2nc(-c3ccccc3)[nH]c2-c2ccnc(NCCCNS(=O)(=O)c3ccc(C)cc3)n2)ccc1F"
val = 101

[[record]]
smiles_str = "CNC(=O)c1cc(N2CCc3cc(NC(=O)Nc4ccc(N5CCOCC5)c(C(F)(F)F)c4)ccc32)ccn1"
val = 49.8

[[record]]
smiles_str = "COc1ccc(NC2=C(Br)C(=O)C(C)=C(C)C2=O)cc1OC"
val = 112

[[record]]
smiles_str = "CC(C)(C)Nc1nc2c(OCCc3ccccc3)cccn2c1-c1cccc(Oc2ccccc2)c1"
val = 34


###

Listed here are molecules together with their documented growth.
Test system: MALME-3M melanoma
Test: NCI-60 one-dose screen, 48 h (100 = growth as untreated, 0 = no growth, -100 = all killed)
Settings: 10 µM unless noted
About 83,000 compounds went through this panel and 20% of them were active in at least one assay; those are over-represented in the sample as a whole.
experimental endpoint: growth (%)

[[record]]
molecule = "CN(C)CCNc1ccc2ncc(C#Cc3cncc(C(=O)Nc4ccc(CN5CCN(C)CC5)c(C(F)(F)F)c4)c3)n2n1"
experimental_endpoint = "growth"
val = 17.4

[[record]]
molecule = "N#Cc1c(-c2cccs2)cc(-c2cnccn2)nc1SCC(=O)N/N=C/c1ccccc1"
experimental_endpoint = "growth"
val = 4.87

[[record]]
molecule = "CCN(CC)S(=O)(=O)c1ccc(-c2nc(C(Cl)Cl)nc3cc(-c4ccc(F)cc4)nn23)cc1"
experimental_endpoint = "growth"
val = 57.6

[[record]]
molecule = "COc1ccc2c(c1)C=CC1(O2)Oc2ccc(OC)cc2C=C1C (stereo unspecified)"
experimental_endpoint = "growth"
val = 55.2

[[record]]
molecule = "O=C(/C=C/C=C/c1csc(Br)n1)NO"
experimental_endpoint = "growth"
val = 85.2

[[record]]
molecule = "Cc1ccccc1NC(=O)Nc1nc2ccc([N+](=O)[O-])cc2s1"
experimental_endpoint = "growth"
val = -6.54

[[record]]
molecule = "CN1CCN(c2ccc(Nc3nc(NCCCNS(=O)(=O)c4ccccc4)c4sccc4n3)cc2)CC1"
experimental_endpoint = "growth"
val = -42.8

[[record]]
molecule = "CN1CCN(Cc2ccc(NC(=O)c3cncc(C#Cc4cnc5ccc(OCC(F)F)nn45)c3)cc2C(F)(F)F)CC1"
experimental_endpoint = "growth"
val = -86.2

[[record]]
molecule = "CNc1sc(S(=O)(=O)NC)nc1S(=O)(=O)c1ccc(C)cc1"
experimental_endpoint = "growth"
val = 110

[[record]]
molecule = "CC1(C)CC[C@]23CC[C@]4(C)[C@H](CC[C@@H]5[C@@]6(C)CC[C@H](NCO)C(C)(C)[C@@H]6CC[C@]54C)[C@H]2[C@H]1OC3"
experimental_endpoint = "growth"
val = 93.5

[[record]]
molecule = "Brc1cccc(-c2cc(-c3ccc4c(c3)OC=CO4)[nH]n2)c1"
experimental_endpoint = "growth"
val = 25.6

[[record]]
molecule = "O=S(=O)(NCCCNc1nccc(-c2[nH]c(-c3ccccc3)nc2-c2ccc(F)c(O)c2)n1)c1cccc(F)c1"
experimental_endpoint = "growth"
val = -2.58

[[record]]
molecule = "Brc1ccc(-c2cc(-c3ccc4c(c3)OC=CO4)n[nH]2)s1"
experimental_endpoint = "growth"
val = 70.3

[[record]]
molecule = "CNC(=O)c1cc(-n2ccc3cc(NC(=O)Nc4ccc(N5CCN(C)CC5)c(C(F)(F)F)c4)ccc32)ccn1"
experimental_endpoint = "growth"
val = 2.37

[[record]]
molecule = "CN(C)c1ccc(/C=N/Nc2nc(N/N=C/c3ccc(N(C)C)cc3)nc(N3CCCCC3)n2)cc1"
experimental_endpoint = "growth"
val = -67.3

[[record]]
molecule = "COc1ccc(NC(=O)CCCCCCNC(=O)C(O)(O)C(F)(F)F)cc1"
experimental_endpoint = "growth"
val = 18.8


###

Test system: NCI-H522 lung
Assay: NCI-60 one-dose screen, 48 h (100 = growth as untreated, 0 = no growth, -100 = all killed)
Conditions: 10 µM unless noted
About 83,000 compounds went through this panel and 20% of them were active in at least one assay; those are over-represented in the sample as a whole. Active and inactive are the calls of the source. Rule for the calls: active = growth percent below 10; inactive = the rest.
Items are presented alongside their recorded growth.
experimental endpoint: growth

[[record]]
compound = "Cc1ccsc1[C@H]1c2[nH]c3ccccc3c2C[C@H]2C(=O)N(CCCCCCC(=O)NO)CC(=O)N12"
study_system = "NCI-H522 lung"
experimental_endpoint = "growth"
val = "58.8% (inactive)"

[[record]]
compound = "CC1=C(C)C(=O)C(Nc2cccc(C(F)(F)F)c2)=C(Br)C1=O"
study_system = "NCI-H522 lung"
experimental_endpoint = "growth"
val = "29.2% (inactive)"

[[record]]
compound = "Cc1cc(Br)ccc1-n1cc(C#N)c(N)c1C(=O)c1ccc(Br)cc1"
study_system = "NCI-H522 lung"
experimental_endpoint = "growth"
val = "99.6% (inactive)"

[[record]]
compound = "COc1ccc2c(c1)c(-c1nc(N)nnc1-c1c[nH]c3ccccc13)cn2C"
study_system = "NCI-H522 lung"
experimental_endpoint = "growth"
val = "29.9% (inactive)"

[[record]]
compound = "Brc1ccc2[nH]cc(-c3nn4cc(-c5nccs5)nc4s3)c2c1"
study_system = "NCI-H522 lung"
experimental_endpoint = "growth"
val = "67.6% (inactive)"

[[record]]
compound = "COc1ccc2c(c1)c(-c1nnc(N)nc1-c1c[nH]c3ccc(F)cc13)cn2C"
study_system = "NCI-H522 lung"
experimental_endpoint = "growth"
val = "27.2% (inactive)"

[[record]]
compound = "CC1=Cc2ccccc2OC12C=Cc1ccccc1O2 (stereo unspecified)"
study_system = "NCI-H522 lung"
experimental_endpoint = "growth"
val = "97.2% (inactive)"

[[record]]
compound = "CC1=C(C)C(=O)C(Nc2ccc3c(c2)OCO3)=C(Br)C1=O"
study_system = "NCI-H522 lung"
experimental_endpoint = "growth"
val = "96.5% (inactive)"

[[record]]
compound = "CC1(C)CC[C@]23CC[C@]4(C)[C@H](CC[C@@H]5[C@@]6(C)CC[C@H](NCO)C(C)(C)[C@@H]6CC[C@]54C)[C@H]2[C@H]1OC3"
study_system = "NCI-H522 lung"
experimental_endpoint = "growth"
val = "101% (inactive)"

[[record]]
compound = "Cc1[nH]c(C(=O)Nc2ccc(C(=O)NCC3CCNCC3)cc2OC(C)C)c(Cl)c1Cl"
study_system = "NCI-H522 lung"
experimental_endpoint = "growth"
val = "90.7% (inactive)"

[[record]]
compound = "Cc1ccccc1Nc1nc(SC(C)C)nc(-c2ccccc2)c1C#N"
study_system = "NCI-H522 lung"
experimental_endpoint = "growth"
val = "73% (inactive)"


###

Test system: SW-620 colon
Assay: NCI-60 one-dose screen, 48 h (100 = growth as untreated, 0 = no growth, -100 = all killed)
Conditions: 10 µM unless noted
The panel holds about 83,000 compounds, 20% with a hit somewhere; the sample as a whole holds those more often.
Sorting guide: entries reporting growth beneath 50% go in the satisfied pile, the rest go in the not satisfied pile.

[[record]]
compound = "COc1ccccc1N1CCN(C2=C(Cl)C(=O)c3ncccc3C2=O)CC1"
classification = "satisfied"

[[record]]
compound = "O=C(COc1ccc(/C=C2\\C(=O)Nc3cc(Cl)ccc32)cc1)Nc1ccc(Cl)cc1"
classification = "not satisfied"

[[record]]
compound = "Fc1cc(F)cc(NNC(=S)c2ccccc2)c1"
classification = "not satisfied"

[[record]]
compound = "O=C(N/N=C\\c1ccc(F)cc1)c1ccc2nc(-c3ccc(Br)cc3)[nH]c2c1"
classification = "satisfied"

[[record]]
compound = "CCN(CC)S(=O)(=O)c1ccc(-c2nc(C(Cl)Cl)nc3cc(-c4ccc(F)cc4)nn23)cc1"
classification = "satisfied"

[[record]]
compound = "CSc1ccc(/C(=N/N=C(N)N)c2ccc(F)cc2)cc1"
classification = "satisfied"

[[record]]
compound = "C#CCN(C)CCCOc1ccc(NC(=O)CCCCCCC(=O)NO)cc1Cl"
classification = "satisfied"

[[record]]
compound = "CN1c2ccccc2Sc2cc(/C=N/Nc3ccnc4cc(Cl)ccc34)ccc21"
classification = "not satisfied"

[[record]]
compound = "Cc1ccc2c(n1)C(=O)C(Cl)=C(Nc1cccc(C(F)(F)F)c1)C2=O"
classification = "satisfied"

[[record]]
compound = "C#C[C@]1(O)CC[C@H]2[C@@H]3CC=C4c5sc(NCc6ccccc6)nc5CC[C@]4(C)[C@H]3CC[C@@]21C"
classification = "not satisfied"

[[record]]
compound = "Cn1c(SCC(=O)c2ccc(Br)cc2)nc2ccccc2c1=O"
classification = "not satisfied"

[[record]]
compound = "CCOC(=O)C1=C(C)NC(C)=C(C(=O)OCc2ccccc2)C1c1cccc(C#N)c1 (configuration not stated)"
classification = "satisfied"

